Each recorded value in this set is attributed to PubChem BioAssay AID602252.

Target: Golgi-associated PDZ and coiled-coil motif-containing protein (Homo sapiens)
Assay: untagged CAL PDZ binding inhibitors, primary screen, biochemical, fluorescence polarization, HTS (AID 602252);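 also: 0% = DMSO neutral control and 100% = excess unlabeled competitor peptide PRC23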
Details: purified CAL PDZ, TMR-peptide fluorescence polarization, 1 h; at 24.9 µM; active compounds read high
The campaign covered roughly 300,000 compounds. About 2,700 (0.9%) were called active. What follows is part of a selection rich in actives, with near analogues and random picks from the rest.
PARAMETER MEASURED: inhibition (%)
Respond numerically; units are % and should not be typed.

# COMPOUND, inhibition / %
measured = [
    ("Cc1cc(C=C2C(=O)NC(=O)NC2=O)c(C)n1-c1ccncc1", 49.2),
]

[ask] Fill in: inhibition of CCC(C)(O)C(=O)OC1C(=O)OC2CC3C(C)=CC(=O)C(O)C3(C)C3C4(O)OCC23C1C(C)C4O (centres undefined) is ___
[reply] -3

[ask] Fill in: inhibition of COc1ccccc1-n1c(O)c(C=NC2CC2)c(=O)[nH]c1=O is ___
[reply] -5.85

[ask] Fill in: inhibition of CC(=NCC1CCCO1)c1c(O)n(-c2ccccc2)c(=O)[nH]c1=O (centres undefined) is ___
[reply] -0.888

[ask] Fill in: inhibition of Cc1ccc(-n2c(C)cc(/C=C3\C(=O)NC(=O)N(C)C3=O)c2C)cc1C is ___
[reply] 0.186

[ask] Fill in: inhibition of CC=C(C)C(=O)OC1CCN2CC=C(COC(=O)C(O)(C(C)OC)C(C)(C)O)C12 (centres undefined) is ___
[reply] -2.7

---

Target: Golgi-associated PDZ and coiled-coil motif-containing protein (Homo sapiens)
Assay: untagged CAL PDZ binding inhibitors, primary screen, biochemical, fluorescence polarization, HTS (AID 602252);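 also: 0% = DMSO neutral control and 100% = excess unlabeled competitor peptide PRC23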
Details: purified CAL PDZ, TMR-peptide fluorescence polarization, 1 h; at 24.9 µM
Among all 300,000 compounds or so, about 2,700 (0.9%) were called active.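 The calls were made as follows: active = mean inhibition of at least 30% with at least half of replicates also reaching 30%; inconclusive = no clear call, values can overlap the other calls; inactive = the rest.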 The entries come from a sample that favours actives as a whole.
Just give me one of these, please: active, inactive

For orientation, consider the following solved cases.
# COMPOUND, CATEGORY
rows = [
    ("Cc1ccc(-n2c(O)c(C=NCC3CCCO3)c(=O)[nH]c2=O)c(C)c1 (stereo not drawn)", "active"),
    ("CC12CCC(O)CC1CCC1C2CCC2(C)C(C(=O)CC(O)C(F)(F)F)CCC12 (stereo not drawn)", "inactive"),
]

We next turn to a different compound, shown below.
[ask] So what was the verdict on CCOC(=O)CC(SP1(=S)OCC2(CCCCO2)C(C2CCCCO2)O1)C(=O)OCC (stereo not drawn) in this test?
[reply] inactive
